Numbers sourced from patent US5298494A.

Tested on: Interleukin 1 (IL-1) production by peritoneal macrophages
Assay: IL-1 Assay: production of interleukin-1 by peritoneal macrophages (thymocyte bioassay)
Assay type: cell-based, mouse (C57B1/6)
Details: 100 ug/ml
REPORTED_METRIC: ^3 H-Thymidine uptake by thymocytes

Reference set (5 entries):
- CN1CCCC1CCNC[C@H]1OC(C)(C)O[C@@H]2[C@H]3OC(C)(C)O[C@H]3O[C@@H]21 (stereo partly drawn): 2,328 ± 278 cpm
- CCCCCCCOCCCO[C@@H]1[C@H]2OC(C)(C)O[C@H]2O[C@@H]1[C@H](O)CO: 934 ± 43 cpm
- CCCCC/C=C/COC[C@H]1O[C@@]2(OC)COC(C)(C)O[C@H]2[C@@H]1OC/C=C/CCCCC: 4,300 ± 1,100 cpm
- CCCCCCCOC[C@H]1O[C@@]2(OC)COC(C)(C)O[C@H]2[C@@H]1O: 2,215 ± 643 cpm
- CC1(C)OC2OC(C(O)COCCCc3ccccc3)C(O)C2O1 (stereo not drawn): 1,129 ± 299 cpm

Okay, next one:
# input compound: `CCCCCC#CCOC[C@H]1O[C@@]2(OC)COC(C)(C)O[C@H]2[C@@H]1OCC#CCCCCC` ; wanted: its ^3 H-Thymidine uptake by thymocytes
1,930 cpm
